- Tgt: Endonuclease 8-like 2 (Homo sapiens) (UniProt Q969S2)
- Sequence (Q969S2 whole entry): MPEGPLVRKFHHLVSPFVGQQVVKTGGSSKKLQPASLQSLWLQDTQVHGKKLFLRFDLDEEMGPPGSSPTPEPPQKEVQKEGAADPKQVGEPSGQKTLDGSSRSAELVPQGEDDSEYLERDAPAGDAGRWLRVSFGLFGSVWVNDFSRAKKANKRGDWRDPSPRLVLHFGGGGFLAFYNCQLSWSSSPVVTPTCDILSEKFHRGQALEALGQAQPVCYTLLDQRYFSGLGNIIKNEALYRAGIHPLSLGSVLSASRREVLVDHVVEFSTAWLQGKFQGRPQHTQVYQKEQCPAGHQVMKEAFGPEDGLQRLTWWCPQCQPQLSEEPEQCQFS
- Condition description: Compound Concentration 10.0 uM, Hit No
- Description: Inhibition of NEIL2 by quantifying inhibition of NEIL2-mediated cleavage and dissociation of quenched duplex DNA oligonucleotides, measured as fluorescence at 594 nm.
Quantity name: inhibition (%)
Give bare numbers, in %.

// known answers, use as guide
* COc1ccccc1N1CCN(C[C@@H](C(=O)NC(C)(C)C)c2ccccc2)CC1 | -2.13
* Cc1cnc(-c2cc(Cl)ccc2F)cc1-n1c(=O)n(CC(N)=O)c2cnccc21 | -8.34
* COCc1nc2cnc3cc(-c4c(C)noc4C)c(OC[C@H]4CCNC4)cc3c2n1[C@H](C)c1ccccc1 | -1.25
* CCC(C)N(C)C(=O)c1cc2ccccc2c(-c2ccccc2Cl)n1 (centres undefined) | 3.59
* CC(=O)[C@H]1CC[C@H]2[C@@H]3CC[C@H]4C[C@H](O)CC[C@]4(C)[C@H]3CC[C@]12C | 5.51

# batch size: 3; output inhibition per entry
1. CN1C[C@H](C(=O)N[C@]2(C)O[C@@]3(O)[C@@H]4CCCN4C(=O)[C@H](Cc4ccccc4)N3C2=O)C[C@@H]2c3cccc4[nH]cc(c34)C[C@H]21
2. CCCCCNC(=N)N/N=C/c1c[nH]c2ccc(OC)cc12
3. CCOC(=O)N1CCC(CN(Cc2ccc(Cl)cc2)Cc2ccc([N+](=O)[O-])s2)C1 (centres undefined)

1. 7
2. 20.7
3. -4.57

Request the reported inhibition associated with CN1CCN(C(=O)C(C)(C)c2ccc(C(=O)Nc3cn4cc(-c5cc(C(C)(C)C)cc(C(C)(C)C)c5)ccc4n3)cc2)CC1 -7.12

---

- Tgt: G/T mismatch-specific thymine DNA glycosylase (Homo sapiens) (UniProt Q13569)
- Sequence (Q13569 whole entry): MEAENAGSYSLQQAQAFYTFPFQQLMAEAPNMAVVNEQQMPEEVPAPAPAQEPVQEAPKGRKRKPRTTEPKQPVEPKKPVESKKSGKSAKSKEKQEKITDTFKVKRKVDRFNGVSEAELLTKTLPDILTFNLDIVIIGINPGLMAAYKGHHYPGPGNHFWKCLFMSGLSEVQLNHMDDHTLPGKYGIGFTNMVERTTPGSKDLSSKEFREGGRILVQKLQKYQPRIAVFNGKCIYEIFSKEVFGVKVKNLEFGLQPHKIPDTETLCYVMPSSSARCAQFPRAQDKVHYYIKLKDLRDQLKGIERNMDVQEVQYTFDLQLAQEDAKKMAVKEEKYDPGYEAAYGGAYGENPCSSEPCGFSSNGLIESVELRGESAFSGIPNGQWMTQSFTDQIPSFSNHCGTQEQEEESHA
- Condition description: Compound Concentration 10.0 uM, Hit No
- Description: Inhibition of TDG by quantifying inhibition of TDG-mediated cleavage and dissociation of quenched duplex DNA oligonucleotides, measured as fluorescence at 594 nm. To generate a functional strand incision and increase turn-over this assay is coupled to APE1.
Quantity name: inhibition (%)
Give bare numbers, in %.

Some solved entries appear below for comparison.
- NC1(c2ccc(-c3nc4c(O)ccnn4c3-c3ccccc3)cc2)CCC1: 52.1
- COc1cc(Nc2ccnc3ccc(Br)cc23)cc(OC)c1OC: 50.8
- CC[C@H]1[C@@H](O)[C@@H]2[C@H](CC[C@]3(C)[C@@H]([C@H](C)CCC(=O)O)CC[C@@H]23)[C@@]2(C)CC[C@@H](O)C[C@@H]12: 67.3
- CC(CNS(=O)(=O)C(C)C)c1ccc(-c2ccc(C#N)cc2)cc1 (stereo not drawn): 11.5
- CC1CCN(c2ccnc(NCc3cn(C)cn3)n2)CC1: 50.4

For every item below, please supply its inhibition.
1. C=CC(=O)Nc1ccc2[nH]c(=O)n(C3CCN(Cc4ccc(-c5nc6cc[nH]c(=O)c6cc5-c5ccccc5)cc4)CC3)c2c1
2. CC(C)(N)C(=O)N[C@H](COCc1ccccc1)C(=O)N1CCC2(CC1)CN(S(C)(=O)=O)c1ccccc12
3. c1ccc(C2CCN(c3cnc4c(N5CCOCC5)nccn34)CC2)cc1
4. O=C1c2ccc(Nc3ccc(F)cc3F)cc2CCc2ccc(OC[C@H](O)CO)cc21
5. N[C@@H](CCP(=O)(O)O)C(=O)O
6. CCCc1c(OCCCOc2ccc(OCC(=O)O)cc2)ccc(C(C)=O)c1O
7. O=C(O)COc1cccc(-c2ocnc2-c2nc(-c3ccccc3)c(-c3ccccc3)o2)c1
8. CNc1cc(Oc2cc(C(=O)Nc3cc(N4CCN(C)CC4)cc(C(F)(F)F)c3)ccc2C)ncn1

1: 49; 2: 6.18; 3: 55.2; 4: 39.4; 5: 17.7; 6: 63; 7: 51; 8: 76.5
